Entries and their pKd values follow.
# TARGET: T1, EsCas13d, nuclease-dead (Eubacterium siraeum, UniProt B0MS50, R295A;H300A;R849A;H854A)
# T1 sequence: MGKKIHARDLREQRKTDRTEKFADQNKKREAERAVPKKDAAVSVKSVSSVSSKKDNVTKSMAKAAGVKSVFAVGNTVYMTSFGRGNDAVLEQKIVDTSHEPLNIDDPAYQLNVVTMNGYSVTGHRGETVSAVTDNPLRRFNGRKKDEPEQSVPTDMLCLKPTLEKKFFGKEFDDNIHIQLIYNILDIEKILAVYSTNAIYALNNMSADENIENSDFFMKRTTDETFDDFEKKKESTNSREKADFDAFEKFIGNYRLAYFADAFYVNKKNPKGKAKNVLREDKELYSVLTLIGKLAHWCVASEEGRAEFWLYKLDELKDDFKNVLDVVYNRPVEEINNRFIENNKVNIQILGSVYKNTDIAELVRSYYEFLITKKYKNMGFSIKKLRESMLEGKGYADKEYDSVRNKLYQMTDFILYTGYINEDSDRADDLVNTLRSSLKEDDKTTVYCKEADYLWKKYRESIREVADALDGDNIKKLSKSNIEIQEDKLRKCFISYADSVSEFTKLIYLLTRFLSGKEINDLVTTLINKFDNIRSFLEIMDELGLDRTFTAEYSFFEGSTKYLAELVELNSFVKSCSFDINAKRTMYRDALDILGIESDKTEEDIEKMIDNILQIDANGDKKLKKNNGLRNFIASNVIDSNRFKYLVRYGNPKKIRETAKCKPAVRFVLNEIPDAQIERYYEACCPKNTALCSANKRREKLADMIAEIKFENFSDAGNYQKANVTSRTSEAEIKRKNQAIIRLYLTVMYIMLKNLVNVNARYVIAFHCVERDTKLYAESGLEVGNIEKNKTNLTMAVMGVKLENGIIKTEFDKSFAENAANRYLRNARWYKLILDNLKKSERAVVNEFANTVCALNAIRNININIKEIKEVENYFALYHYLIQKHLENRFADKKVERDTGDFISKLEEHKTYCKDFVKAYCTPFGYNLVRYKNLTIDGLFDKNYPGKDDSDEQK
# ASSAY PROCEDURE: crRNA (strand 1, pre-loaded); Mg2+; 40 mM Tris-HCl pH 7.5, 150 mM NaCl, 6 mM MgCl2, 1 mM DTT, 0.1% Tween-20, 0.2 mg/ml BSA; 25 C; 10 min per concentration, then washed
# EXPERIMENTAL PARAMETERS: tags: His6-TwinStrep-SUMO cleaved; N-terminal SNAP kept (SNAP-Surface 488); label: 3' end held by stalled T7 RNA polymerase
Friendly reminder that pKd comes from taking -log10 of the concentration in mol/L.

Look over these answered cases.
BINDER	pKd
target 2 MT 5'PFS UAA 3'PFS CAU (mixed) RNA 1: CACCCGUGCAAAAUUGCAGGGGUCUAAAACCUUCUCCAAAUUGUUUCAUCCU RNA 2: GGGAAUGGAUCCACAUCUACGAAUUCUAAAGGAUGAAACAAUUUGGAGAAGCAUAGAUCGGAAGAGCACACGU	8.31
target 3 del2,del19 (mixed) RNA 1: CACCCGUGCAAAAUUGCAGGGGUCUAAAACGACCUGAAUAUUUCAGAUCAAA RNA 2: GGGAAUGGAUCCACAUCUACGAAUUCGUUUUUAUCUGAAAUAUUCAGGCUGCAGAUCGGAAGAGCACACGU	7.01
target 2 MT 5'PFS UAG 3'PFS UUA (mixed) RNA 1: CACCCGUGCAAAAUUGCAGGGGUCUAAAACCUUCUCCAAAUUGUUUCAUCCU RNA 2: GGGAAUGGAUCCACAUCUACGAAUUCUAGAGGAUGAAACAAUUUGGAGAAGUUAAGAUCGGAAGAGCACACGU	8.09
target 1 MT 5'PFS GUC 3'PFS UUU (mixed) RNA 1: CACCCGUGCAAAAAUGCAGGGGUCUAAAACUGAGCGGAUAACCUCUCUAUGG RNA 2: GGGAAUGGAUCCACAUCUACGAAUUCGUCCCAUAGAGAGGUUAUCCGCUCAUUUAGAUCGGAAGAGCACACGU	7.82

# pKd (binder: target 1 C2A,A20C (mixed) RNA 1: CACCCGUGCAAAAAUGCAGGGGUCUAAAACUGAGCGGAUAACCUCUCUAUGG RNA 2: GGGAAUGGAUCCACAUCUACGAAUUCGUACCCUAGAGAGGUUAUCCGCUAACCGAGAUCGGAAGAGCACACGU ) is 7.44

According to the records, this binder target 1 C7U,G15U (mixed) RNA 1: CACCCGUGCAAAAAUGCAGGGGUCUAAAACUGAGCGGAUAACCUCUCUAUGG RNA 2: GGGAAUGGAUCCACAUCUACGAAUUCGUACCAUAGAUAGGUUAUUCGCUCACCGAGAUCGGAAGAGCACACGU displays pKd of 7.88

Documented pKd of target 3 U20A,U21G (mixed) RNA 1: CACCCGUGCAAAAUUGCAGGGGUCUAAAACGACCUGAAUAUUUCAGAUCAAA RNA 2: GGGAAUGGAUCCACAUCUACGAAUUCGUUUGAGAUCUGAAAUAUUCAGGUCUGCAGAUCGGAAGAGCACACGU : 7.01

Reported pKd ( target 1 G5U,A16C (mixed) RNA 1: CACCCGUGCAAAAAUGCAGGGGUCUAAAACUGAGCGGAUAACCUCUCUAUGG RNA 2: GGGAAUGGAUCCACAUCUACGAAUUCGUACCAUAGCGAGGUUAUCCUCUCACCGAGAUCGGAAGAGCACACGU ) = 7.22
